Reported logD at 90 min is given for each of the following compounds.
# measurement_description: physchem
# condition_notes: pH 7.4
Number only, no unit.

>>> print(df.to_string())
                                   compound  measurement_label  readout_number
0         CN(C)CCCN1c2ccccc2CCc2ccc(Cl)cc21     logD at 90 min            3.46
1  CN1CCCCC1CCN1c2ccccc2Sc2ccc([S+](C)[O-])cc21 (centres unmarked)     logD at 90 min            1.74
2  CC(C(=O)O)c1ccc(-c2ccccc2)c(F)c1 (centres unmarked)     logD at 90 min             0.8
3  C[C@]12C=CC(=O)C=C1CC[C@@H]1[C@@H]2[C@@H](O)C[C@@]2(C)[C@H]1CC[C@]2(O)C(=O)CO     logD at 90 min            1.53

Proceed to the following item.
Req: Entry NS(=O)(=O)c1cc(C2(O)NC(=O)c3ccccc32)ccc1Cl (centres unmarked) : reported logD at 90 min = ?
Resp: 0.9

Values from patent US20240280594A1
